tested on: RXF 393 renal; assay: NCI tumour cell line growth inhibition, 48 h
TGI values by entry
measurement.name: TGI

[
  {
    "smiles": "NC(=O)C(=O)c1ncn(Cc2ccccc2)c1N",
    "test.system": "RXF 393 renal",
    "measurement": "> 100 µM"
  },
  {
    "smiles": "c1ccc2c(c1)NCCC(=NC1CCCCC1)N2",
    "test.system": "RXF 393 renal",
    "measurement": "> 100 µM"
  },
  {
    "smiles": "Cc1cc(Cl)cc2c(N=Nc3ccc(S(N)(=O)=O)cc3)c(O)[nH]c12",
    "test.system": "RXF 393 renal",
    "measurement": "> 25 µM"
  }
]
